Measured values drawn from patent US20170088632A1 for this set.

- System Under Test: human MASP-2 (human, UniProt O00187 16-686)
- Sequence (O00187 16-686): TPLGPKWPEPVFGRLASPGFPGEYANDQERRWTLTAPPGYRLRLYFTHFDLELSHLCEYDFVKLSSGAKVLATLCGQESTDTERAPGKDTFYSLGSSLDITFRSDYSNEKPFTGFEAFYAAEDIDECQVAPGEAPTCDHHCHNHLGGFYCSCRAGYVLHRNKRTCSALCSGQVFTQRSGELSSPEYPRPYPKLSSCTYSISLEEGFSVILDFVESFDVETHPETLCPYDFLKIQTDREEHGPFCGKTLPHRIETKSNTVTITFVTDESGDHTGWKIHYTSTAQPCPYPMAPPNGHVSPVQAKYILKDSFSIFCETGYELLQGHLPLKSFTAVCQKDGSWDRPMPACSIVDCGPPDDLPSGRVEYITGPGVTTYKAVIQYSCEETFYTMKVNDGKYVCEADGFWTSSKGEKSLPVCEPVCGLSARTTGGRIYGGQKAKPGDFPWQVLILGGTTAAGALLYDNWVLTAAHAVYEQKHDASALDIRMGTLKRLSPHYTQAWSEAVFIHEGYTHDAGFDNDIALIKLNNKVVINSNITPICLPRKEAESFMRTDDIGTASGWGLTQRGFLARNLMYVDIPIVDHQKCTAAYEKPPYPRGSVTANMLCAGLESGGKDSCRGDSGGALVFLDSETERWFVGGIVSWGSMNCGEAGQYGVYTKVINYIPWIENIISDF
- Protocol Notes: cell-based or functional assay
Please assign Condition not met whenever Functional IC50, C3b deposition, human serum Exp #4 is at or above 40 nM, and Condition met whenever it is below.

Binder: scFv mother clone 17L20 (scFv) scFv: EVQLQQSGPGLVKPSQTLSLTCAISGDSVSSKRAAWDWIRQSPSRGLEWLGRTYYRSKWFNDYAISVKSRITINADTSRNQFSLQLNSVTPEDTAVYYCVKSNSGTGAFDSWGQGTLVTVSSKLSGSASAPKLEEGEFSEARVQPGLTQPPSVSVSPGQTARITCSRDKLGDKYVSWYQQKPGQSPVVVMYKDNKRPSGIPERFSGSNSGNTATLTISGTQAMDEADYYCQAWDSSTAGVFGGGTKLTVLAAAGSEQKLISEEDLNSHHHHHH
Assigned Label: Condition not met

Binder: scFv mother clone 9P13 (scFv) scFv: QVQLQQSGPGLVKPSQTLSLTCAISGDSVSSNSAAWNWIRQSPSRGLEWLGRTYYRSKWYNDYAVSVKSRITINPDTSKNQFSLQLNSVTPEDTAVYYCARDPFGVPFDIWGQGTMVTVSSKLSGSASAPKLEEGEFSEARVSYELTQLPSVSVAPGQTARVTCGGNNIRSKNVHWYQQKPGQAPVLVVYDDTDRPSGIPERFSGSNSGNTATLTVSRVEAGDEADYYCQVWDTTTDHVVFGGGTKVTVLAAAGSEQKLISEEDLNSHHHHHH
Assigned Label: Condition met

Binder: scFv mother clone 17D20 (scFv, also called 17D20 (17P10); 17D20mc) scFv: QVTLKESGPVLVKPTETLTLTCTVSGFSLSRGKMGVSWIRQPPGKALEWLAHIFSSDEKSYRTSLKSRLTISKDTSKNQVVLTMTNMDPVDTATYYCARIRAGGIDYWGQGTLVTVSSKLSGSASAPKLEEGEFSEARVQPVLTQPPSVSVSPGQTASITCSGDKLGDKFAYWYQQKPGHSPVLVIYQDNKRPSGIPGRFSGSNSGNTATLTISGTQAMDEADYYCQAWDSSTAVFGTGTKVTVLAAAGSEQKLISEEDLNSHHHHHH
Assigned Label: Condition met

Binder: scFv mother clone 17N16 (scFv, also called 17N16mc; 17N16m) scFv: QVQLQQSGPGLVKPSQTLSLTCAISGDSVSSTSAAWNWIRQSPSRGLEWLGRTYYRSKWYNDYAVSVKSRITINPDTSKNQFSLQLNSVTPEDTAVYYCARDPFGVPFDIWGQGTMVTVSSKLSGSASAPKLEEGEFSEARVSYVLTQPPSVSVAPGQTARITCGGNNIGSKNVHWYQQKPGQAPVLVVYDDSDRPSGIPERFSGSNSGNTATLTVSRVEAGDEADYYCQVWDTTTDHVVFGGGTKLTVLAAAGSEQKLISEEDLNSHHHHHH
Assigned Label: Condition met

Binder: scFv mother clone 4D9 (scFv, also called 4D9 (18L16)) scFv: QITLKESGPVLVKPTETLTLTCTVSGFSLSNARMGVSWIRQPPGKALEWLAHIFSNDEKSYSTSLKSRLTISKDTSKSQVVLTMTNMDPVDTATYYCARMRYSSSLYGMDVWGQGTRVTVSSKLSGSASAPKLEEGEFSEARVSYELIQPPSVSVSPGQTASITCSGDKLGDKYVSWYQQKPGRSPVLVIYRDTKRPSGIPERFSGSNSGNTATLTISGTQAMDEADYYCQAWDSSTVVFGGGTKLTVLAAAGSEQKLISEEDLNSHHHHHH
Assigned Label: Condition met

Binder: scFv mother clone 18L16 (scFv) scFv: QVTLKESGPVLVKPTETLTLTCTVSGFSLSNARMGVSWIRQPPGKALEWLAHIFSNDEKSYSTSLKSRLTISKDTSKSQVVLTMTNMDPVDTATYYCARMAILTAGGMDVWGQGTTVTVSSKLSGSASAPKLEEGEFSEARVSYVLTQPPSVSASPGQTASITCSGDKLGDKYVSWYQQKPGRSPVLVIYRDTKRPSGIPERFSGSNYGNTATLTISGTQAVDEADYYCQAWDSGSGVFGGGTKVTVLAAAGSEQKLISEEDLNSHHHHHH
Assigned Label: Condition not met
